Recorded values, source patent US9776972B2.

Target of assay: human PRMT1 (Homo sapiens)
Construct: GST-tagged PRMT1; made in house; host or cells: High Five insect cells (baculovirus)
Sequence (Q99873 with tags, fused parts or gaps): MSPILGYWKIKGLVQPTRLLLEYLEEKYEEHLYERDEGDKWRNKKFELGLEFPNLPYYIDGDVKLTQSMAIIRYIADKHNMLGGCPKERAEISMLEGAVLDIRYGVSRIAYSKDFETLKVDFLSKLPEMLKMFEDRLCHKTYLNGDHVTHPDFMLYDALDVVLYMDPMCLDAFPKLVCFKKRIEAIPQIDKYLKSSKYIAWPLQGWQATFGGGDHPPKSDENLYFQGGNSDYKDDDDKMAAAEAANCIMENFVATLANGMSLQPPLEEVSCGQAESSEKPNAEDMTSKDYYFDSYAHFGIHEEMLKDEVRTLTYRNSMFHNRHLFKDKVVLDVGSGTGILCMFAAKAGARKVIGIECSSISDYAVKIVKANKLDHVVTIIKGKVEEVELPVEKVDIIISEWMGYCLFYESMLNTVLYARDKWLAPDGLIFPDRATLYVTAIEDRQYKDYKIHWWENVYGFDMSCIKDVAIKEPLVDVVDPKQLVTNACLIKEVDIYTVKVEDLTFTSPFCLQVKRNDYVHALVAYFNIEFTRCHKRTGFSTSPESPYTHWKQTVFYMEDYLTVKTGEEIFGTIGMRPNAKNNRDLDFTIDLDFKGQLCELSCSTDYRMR
Protocol description: PRMT1 Biochemical Assay (3H-SAM Flashplate, peptide substrate)
Run parameters: single experiment or average of multiple experiments
Value kind: IC50 (nM)
API: value field is a number in nM; no unit string.

Request: Provide the documented IC50 with human PRMT1 (Homo sapiens) as the system for CN(CCN)Cc1n[nH]cc1-c1ccc(Oc2ccccc2)cc1 [Compound 203]
Response: 4.28

###

Tested on: mono-methyl arginine in RKO cells
Protocol description: RKO Methylation Assay, In Cell Western (ICW) for mono-methyl arginine and DNA content
Format: cell-based
Run parameters: Homo sapiens, RKO, 72 h, RKO cells, 72 hours, mono-methyl arginine, percent activation; single experiment or average of multiple experiments; read-out: EC30 (In Cell Western data, Numerical)
Catalogue of molecules with associated log10(EC30)
// stored as log10 of EC30 expressed in µM

Examples with their reported log10(EC30) follow.
[[record]]
molecule = "CNCCN(C)Cc1c[nH]nc1-c1ccc(OC(COC)CC(C)C)cc1 (stereo not drawn)"
observed_value = -0.29

[[record]]
molecule = "CN(CCN)Cc1c[nH]nc1-c1ccc(Cl)c(F)c1"
observed_value = -0.50

[[record]]
molecule = "Cc1c(F)cccc1-c1n[nH]cc1CN(C)CCN"
observed_value = 0.87

[[record]]
molecule = "CC(C)Oc1ccc(-c2c(CN(C)CCN)cnn2C)cc1"
observed_value = -0.53

[[record]]
molecule = "CNCCN(C)Cc1c[nH]nc1-c1cc(C(C)C)cc(C(C)C)c1"
observed_value = 0.94


Request: For the molecule CN(CCN)Cc1nn(C)cc1-c1ccc(C#N)cc1 , what log10(EC30) is on record?
Response: 0.83

Request: Give its log10(EC30) value. Item: CN(CCN)Cc1c[nH]nc1-c1cc(Cl)cc(Cl)c1
Response: 0.62
